Values compiled from ChEMBL document CHEMBL1129023.

# Test system: Mus musculus
# assay.method.text: Compound was evaluated for the tumor growth inhibition on day 21 against M5076 sarcoma implanted sc in mice at a dose of 200 mg/kg/day.
# Type: functional
# conditions: 504 h, route subcutaneous, read-out: TGI
quantity.measured: inhibition in vivo at 200 mg/kg/day (%)

CCCCCCCCCCCCCC(=O)OCC(COP(=O)([O-])OC[C@H]1O[C@@H](n2ccc(N)nc2=O)[C@@H](C#N)[C@@H]1O)OC(=O)CCCCCCCCCCCCC.[Na+] (some centres undefined)    97
CCCCCCCCCCCCCCCC(=O)OCC(COP(=O)([O-])OC[C@H]1O[C@@H](n2ccc(N)nc2=O)[C@@H](C#N)[C@@H]1O)OC(=O)CCCCCCCCCCCCCCC.[Na+] (some centres undefined)    98
N#C[C@H]1[C@H](O)[C@@H](CO)O[C@H]1n1ccc(N)nc1=O    47
CCCCCCCCCCCCCCCCCC(=O)OCC(COP(=O)([O-])OC[C@H]1O[C@@H](n2ccc(N)nc2=O)[C@@H](C#N)[C@@H]1O)OC(=O)CCCCCCCCCCCCCCCCC.[Na+] (some centres undefined)    97
